Assay: Metabolic stability in human liver microsomes assessed as parent compound remaining at 0.5 uM after 10 mins
Format: ADME, Microsome
Conditions: read-out: Stabilty
MEASURED METRIC: remaining at 10 min, 0.5 µM (%)

COMPOUND: CCC(Nc1nnc(-c2ccc(OC)cc2)o1)[C@H]1CC[C@@H](c2ccnc3ccc(C(F)(F)F)cc32)CC1 (stereo partly drawn)
OBSERVED: 83
--
COMPOUND: CCC(c1nc2ccc(Cl)cc2[nH]1)[C@H]1CC[C@H](Oc2ccnc3ccccc23)CC1 (stereo partly drawn)
OBSERVED: 84
--
COMPOUND: CCOCC(Nc1nnc(-c2ccc(OC)cc2)o1)[C@H]1CC[C@@H](c2ccnc3ccc(C(F)(F)F)cc32)CC1 (stereo partly drawn)
OBSERVED: 60
--
COMPOUND: COc1ccc(Nc2nnc([C@H](C)[C@H]3CC[C@@H](c4ccnc5ccc(F)cc54)CC3)o2)cc1
OBSERVED: 18
--
COMPOUND: C[C@@H](c1ncc(-c2ccc(Cl)cc2)o1)[C@H]1CC[C@@H](c2ccnc3ccc(F)cc32)CC1
OBSERVED: 97
--
COMPOUND: CCC(Nc1nnc(-c2ccc(OC)cc2)o1)[C@H]1CC[C@@H](c2ccnc3ccc(F)cc32)CC1 (stereo partly drawn)
OBSERVED: 66
--
COMPOUND: C[C@@H](c1nc2ncc(Cl)cc2[nH]1)[C@H]1CC[C@@H](c2ccnc3ccc(F)cc32)CC1
OBSERVED: 67
--
COMPOUND: C[C@@H](c1ncc(-c2ccc(Cl)cc2)[nH]1)[C@H]1CC[C@@H](c2ccnc3ccc(F)cc32)CC1
OBSERVED: 58
--
COMPOUND: CCC(Nc1nnc(-c2ccc(OC)cc2)o1)[C@H]1CC[C@@H](c2ccnc3c(F)cc(F)cc32)CC1 (stereo partly drawn)
OBSERVED: 54
--
COMPOUND: COCC(Nc1nnc(-c2ccc(OC)cc2)o1)[C@H]1CC[C@@H](c2ccnc3ccc(F)cc32)CC1 (stereo partly drawn)
OBSERVED: 57
--
COMPOUND: C[C@@H](c1nc2ccc(F)cc2[nH]1)[C@H]1CC[C@@H](c2ccnc3ccc(F)cc32)CC1
OBSERVED: 42
--
COMPOUND: C[C@@H](c1nnc(-c2ccc(Cl)cc2)o1)[C@H]1CC[C@@H](c2ccnc3ccc(F)cc32)CC1
OBSERVED: 68
--
COMPOUND: COc1ccc(-c2nnc(N[C@H](C)[C@H]3CC[C@@H](c4ccnc5ccc(F)cc54)CC3)o2)cc1
OBSERVED: 64
--
COMPOUND: CCC(c1nc2ncc(Cl)cc2[nH]1)[C@H]1CC[C@@H](c2ccnc3ccc(F)cc32)CC1 (stereo partly drawn)
OBSERVED: 78
--
COMPOUND: CCC(c1nc2ccc(Cl)cc2[nH]1)[C@H]1CC[C@@H](c2ccnc3ccc(F)cc32)CC1 (stereo partly drawn)
OBSERVED: 82
--
COMPOUND: CCC(c1nc2ncc(Cl)cc2[nH]1)[C@H]1CC[C@@H](c2ccnc3ccc(C(F)(F)F)cc32)CC1 (stereo partly drawn)
OBSERVED: 81
--
COMPOUND: CCC(Nc1nnc(-c2ccc(OC)cc2)o1)[C@H]1CC[C@H](Oc2ccnc3ccccc23)CC1 (stereo partly drawn)
OBSERVED: 83
--
COMPOUND: C[C@@H](c1nnc(-c2ccc(Cl)cc2)[nH]1)[C@H]1CC[C@@H](c2ccnc3ccc(F)cc32)CC1
OBSERVED: 88
